For each of the compounds below, state its IC25 growth inhibition.
# System: Dorea formicigenerans;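 note: lowest concentration where monotonic median growth AUC falls below 0.75 of drug-free control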
# assay-notes: IC25 growth inhibition; higher = less potent

q: Tell me the measured IC25 growth inhibition of CCc1oc2ccccc2c1C(=O)c1cc(Br)c(O)c(Br)c1 , please.
a: ≤ 40 µM

q: Tell me the measured IC25 growth inhibition of CC(C)(O)c1ccccc1CC[C@@H](SCC1(CC(=O)O)CC1)c1cccc(/C=C/c2ccc3ccc(Cl)cc3n2)c1 , please.
a: > 80 µM

q: Tell me the measured IC25 growth inhibition of CCOC(=O)C1=C(COCCN)NC(C)=C(C(=O)OC)C1c1ccccc1Cl (stereo not drawn) , please.
a: ≤ 40 µM

q: Tell me the measured IC25 growth inhibition of CCN(CC)C(C)CN1c2ccccc2Sc2ccccc21 (stereo not drawn) , please.
a: > 80 µM

q: Tell me the measured IC25 growth inhibition of CCOC(=O)C1=C(C)NC(C)=C(C(=O)OCC)C1c1ccccc1/C=C/C(=O)OC(C)(C)C , please.
a: > 40 µM

q: Tell me the measured IC25 growth inhibition of NC[C@H]1O[C@H](O[C@H]2[C@H](O)[C@@H](O[C@H]3O[C@H](CO)[C@@H](O)[C@H](N)[C@H]3O)[C@H](N)C[C@@H]2N)[C@H](N)C[C@@H]1O , please.
a: > 160 µM

q: Tell me the measured IC25 growth inhibition of O=c1oc2ccccc2c(O)c1Cc1c(O)c2ccccc2oc1=O , please.
a: > 80 µM

q: Tell me the measured IC25 growth inhibition of C[C@@H](O[C@H]1OCCN(Cc2n[nH]c(=O)[nH]2)[C@H]1c1ccc(F)cc1)c1cc(C(F)(F)F)cc(C(F)(F)F)c1 [Aprepitant] , please.
a: > 160 µM
